Recorded survival values for a group of compounds are listed next.
- System: DeltatarO mutant
- Assay Method Text: S. aureus survival, RN4220 and DeltatarO strains – OD600, teichoic acid synthesis inhibitors, primary screen (AID 463173)
- Condition Description: S. aureus RN4220 wild type/DeltatarO growth, OD600, 18 h, stronger effect = lower value, screened at 18.75 µg/mL (by protocol)
Hit rate of the full screen: of about 52,000 compounds, about 4,300 (8.3%) were called active. The sample as a whole holds a higher share of actives than the screen did.
Provide the reading as a plain figure in %.

Reference set, count: 5
Compound | Unit Abbrev | survival
COc1ccc(NC(=O)c2nc(S(=O)(=O)Cc3ccc(C)cc3)ncc2Cl)cc1 | % | 32
CSc1ncc(Cl)c(C(=O)NCc2ccc(C)cc2)n1 | % | 84
Cn1nc(C(=O)NCc2cccc(Cl)c2)c2c1-c1ccccc1SC2 | % | 74
COc1cccc(NC(=O)Cn2c(=O)n(-c3cccc(OC)c3)c(=O)c3c4c(sc32)CCCC4)c1 | % | 107
Cc1ccc(CNC(=O)c2nc(SCc3cccc(C)c3)ncc2Cl)cc1 | % | 117

Which survival reading was recorded for the compound Cc1cccc(CS(=O)(=O)c2ncc(Cl)c(C(=O)NCc3ccccc3)n2)c1 ?
-1

What measured survival goes with O=C(CCCN1C(=O)C(c2ccccc2)Oc2cccnc21)Nc1ccccc1C(F)(F)F (stereo unspecified) ?
100

For the compound shown here, COc1ccccc1NC(=O)c1nc(SCc2ccc(F)cc2)ncc1Cl , give the reported survival.
77

So what does the record say about survival for COc1ccc(CNC(=O)c2nc(SCc3ccc(C)cc3)ncc2Cl)cc1 ?
67

Return reported survival; argument: COc1ccc(OC)c(NC(=O)c2nc(S(=O)(=O)Cc3ccc(F)cc3)ncc2Cl)c1
-5

Entry under review: Cc1ccccc1CNCCSc1nnnn1C . Reported survival?
84

Every entry's value here was drawn from PubChem BioAssay AID463173.
